target: Metallo-beta-lactamase type 2 (Klebsiella pneumoniae)
Calls of active or inactive are those of the source.
measured parameter: MIC

Here are 8 compounds together with their reported answers.
compound	MIC
S=C(S)N1CCOCC1	4 to 16 µg/mL
S=C([S-])N1CCCCC1.[Na+]	< 0.0312 µg/mL
CCCCCCN(CCCCCC)C(=S)S	8 to 16 µg/mL
CCCCCCCCCCCCCCNC(=S)S	inactive
S=C(S)N1CCN(C(=S)S)CC1	4 to 16 µg/mL
CCCCCCNC(=S)S	inactive
CCCCCCCCN(CCCCCCCC)C(=S)S	1 to 8 µg/mL
CCN(CC)C(=S)[S-].[Na+] [DITIOCARB SODIUM]	< 2 µg/mL

Now for a further compound.
State its MIC on Metallo-beta-lactamase type 2 (Klebsiella pneumoniae): S=C([S-])N1CCCC1.[Na+]
< 0.0312 µg/mL
